assay-notes: Cytotoxicity against human HuTu 80 cells after 48 hrs by MTT assay
Type: functional, cell-based
condition-notes: HuTu80, 48 h
readout-name: IC90

# compound, IC90
data = [
    ("N#CC1=C(N)Oc2c(c(=O)oc3ccccc23)C1c1ccc(Br)cc1 (configuration not stated)", "274 µg/mL"),
    ("O=c1oc2ccccc2c(O)c1C(c1ccc(F)c(Cl)c1)c1c(O)c2ccccc2oc1=O", "64.5 µg/mL"),
    ("CC1(C)CC(=O)C2=C(C1)OC(N)=C(C#N)C2c1cccc(Oc2ccccc2)c1 (configuration not stated)", "1700 µg/mL"),
    ("COc1ccc(C2C(C#N)=C(N)Oc3c2c(=O)oc2ccccc32)cc1OC (configuration not stated)", "232 µg/mL"),
    ("COc1cc(C2C(C#N)=C(N)OC3=C2C(=O)CCC3)ccc1O (configuration not stated)", "399 µg/mL"),
    ("CC1(C)CC(=O)C2=C(C1)OC(N)=C(C#N)C2c1cccc(C(F)(F)F)c1 (configuration not stated)", "788 µg/mL"),
    ("N#CC1=C(N)Oc2c(c(=O)oc3ccccc23)C1c1ccc(C#N)cc1 (configuration not stated)", "221 µg/mL"),
    ("N#CC1=C(N)OC2=C(C(=O)CCC2)C1c1cccc(Br)c1 (configuration not stated)", "543 µg/mL"),
    ("CC1(C)CC(=O)C2=C(C1)OC(N)=C(C#N)C2c1ccccc1C#N (configuration not stated)", "814 µg/mL"),
    ("O=c1oc2ccccc2c(O)c1C(c1ccc(Br)cc1)c1c(O)c2ccccc2oc1=O", "52.6 µg/mL"),
]

For N#CC1=C(N)OC2=C(C(=O)CCC2)C1c1cc(F)cc(F)c1 (configuration not stated) , what is its reported IC90? 824 µg/mL

For CC(C)(C)c1ccc(C(c2c(O)c3ccccc3oc2=O)c2c(O)c3ccccc3oc2=O)cc1 , what is its reported IC90? 55.5 µg/mL

###

Tested on: Staphylococcus aureus
assay-notes: Antibacterial activity against methicillin-resistant Staphylococcus aureus Mu50 ATCC 700699 after 20 hrs by CLSI broth microdilution method
Type: functional
condition-notes: Mu50 ATCC 700699, 20 h
Below, each entry is listed alongside its reported MIC.

Examples from the recorded data:
# molecule, MIC
data = [
    ("CC1(C)CC(=O)C2=C(C1)OC(N)=C(C#N)C2c1cccc(Oc2ccccc2)c1 (stereo not drawn)", "> 256 µg/mL"),
    ("N#CC1=C(N)OC2=C(C(=O)CCC2)C1c1cc(F)cc(F)c1 (stereo not drawn)", "> 256 µg/mL"),
    ("CC(C)(O/N=C(\\C(=O)N[C@@H]1C(=O)N2C(C(=O)[O-])=C(C[n+]3ccccc3)CS[C@H]12)c1csc(N)n1)C(=O)O [CEFTAZIDIME]", "256 µg/mL"),
    ("C[C@H]1COc2c(N3CCN(C)CC3)c(F)cc3c(=O)c(C(=O)O)cn1c23.C[C@H]1COc2c(N3CCN(C)CC3)c(F)cc3c(=O)c(C(=O)O)cn1c23.O [LEVOFLOXACIN]", "4 µg/mL"),
    ("COc1cc(C2C(C#N)=C(N)OC3=C2C(=O)CCC3)ccc1O (stereo not drawn)", "> 256 µg/mL"),
]

For CC1(C)CC(=O)C2=C(C1)OC(N)=C(C#N)C2c1cccc(C(F)(F)F)c1 (stereo not drawn) , what is its reported MIC? > 256 µg/mL

For CC1(C)CC(=O)C2=C(C1)OC(N)=C(C#N)C2c1ccccc1C#N (stereo not drawn) , what is its reported MIC? > 256 µg/mL

For N#CC1=C(N)OC2=C(C(=O)CCC2)C1c1cccc(Br)c1 (stereo not drawn) , what is its reported MIC? > 256 µg/mL

###

Below, each entry is listed alongside its reported MIC.
System: Staphylococcus aureus
assay-notes: Antibacterial activity against methicillin-resistant Staphylococcus aureus Mu50 ATCC 700699 after 20 hrs by CLSI broth microdilution method
Type: functional
condition-notes: Mu50 ATCC 700699, 20 h

Examples from the recorded data:
# compound, readout-name, measured-value
rows = [
    ("CC(C)(C)c1ccc(C(c2c(O)c3ccccc3oc2=O)c2c(O)c3ccccc3oc2=O)cc1", "MIC", "16 µg/mL"),
    ("O=c1oc2ccccc2c(O)c1C(c1ccc(Br)cc1)c1c(O)c2ccccc2oc1=O", "MIC", "8 µg/mL"),
]

For CO/N=C(\C(=O)N[C@@H]1C(=O)N2C(C(=O)O)=C(CSc3nc(=O)c(O)nn3C)CS[C@H]12)c1csc(N)n1 [CEFTRIAXONE] , what is its reported MIC? 256 µg/mL

For N#CC1=C(N)Oc2c(c(=O)oc3ccccc23)C1c1ccc(Br)cc1 (stereo not drawn) , what is its reported MIC? > 256 µg/mL

For O=c1oc2ccccc2c(O)c1C(c1ccc(F)c(Cl)c1)c1c(O)c2ccccc2oc1=O , what is its reported MIC? 8 µg/mL

For COc1ccc(C2C(C#N)=C(N)Oc3c2c(=O)oc2ccccc32)cc1OC (stereo not drawn) , what is its reported MIC? > 256 µg/mL

For CCN1CCN(C(=O)N[C@@H](C(=O)N[C@@H]2C(=O)N3[C@@H]2SC(C)(C)[C@@H]3C(=O)O)c2ccccc2)C(=O)C1=O [PIPERACILLIN] , what is its reported MIC? > 128 µg/mL

For N#CC1=C(N)Oc2c(c(=O)oc3ccccc23)C1c1ccc(C#N)cc1 (stereo not drawn) , what is its reported MIC? > 256 µg/mL

###

assay-notes: Cytotoxicity against human HuTu 80 cells after 48 hrs by MTT assay
Format: functional, cell-based
condition-notes: HuTu80, 48 h
readout-name: log10 of IC50 (log10 of the value in µg/mL)
Lab note - IC50 converted to log10 from values in µg/mL.

For N#CC1=C(N)OC2=C(C(=O)CCC2)C1c1cccc(Br)c1 (configuration not stated) , what is its reported log10 of IC50? 2.45

###

assay-notes: Cytotoxicity against human HuTu 80 cells after 48 hrs by MTT assay
Assay type: functional, cell-based
condition-notes: HuTu80, 48 h
Friendly reminder: IC50 below 100 µg/mL is 1 (yes), at or above is 0 (no).

These recorded examples may help you get a feel for the data.
# compound, qualitative-label
data = [
    ("N#CC1=C(N)OC2=C(C(=O)CCC2)C1c1cc(F)cc(F)c1 (stereo unspecified)", "0 (no)"),
    ("CC(C)(C)c1ccc(C(c2c(O)c3ccccc3oc2=O)c2c(O)c3ccccc3oc2=O)cc1", "1 (yes)"),
    ("COc1ccc(C2C(C#N)=C(N)Oc3c2c(=O)oc2ccccc32)cc1OC (stereo unspecified)", "0 (no)"),
    ("CC1(C)CC(=O)C2=C(C1)OC(N)=C(C#N)C2c1cccc(C(F)(F)F)c1 (stereo unspecified)", "0 (no)"),
    ("COc1cc(C2C(C#N)=C(N)OC3=C2C(=O)CCC3)ccc1O (stereo unspecified)", "0 (no)"),
    ("N#CC1=C(N)Oc2c(c(=O)oc3ccccc23)C1c1ccc(C#N)cc1 (stereo unspecified)", "0 (no)"),
    ("O=c1oc2ccccc2c(O)c1C(c1ccc(F)c(Cl)c1)c1c(O)c2ccccc2oc1=O", "1 (yes)"),
    ("CC1(C)CC(=O)C2=C(C1)OC(N)=C(C#N)C2c1ccccc1C#N (stereo unspecified)", "0 (no)"),
    ("CC1(C)CC(=O)C2=C(C1)OC(N)=C(C#N)C2c1cccc(Oc2ccccc2)c1 (stereo unspecified)", "0 (no)"),
    ("O=c1oc2ccccc2c(O)c1C(c1ccc(Br)cc1)c1c(O)c2ccccc2oc1=O", "1 (yes)"),
]

Let's switch to this compound now.
Input N#CC1=C(N)Oc2c(c(=O)oc3ccccc23)C1c1ccc(Br)cc1 (stereo unspecified) ; condition: IC50 strictly below 100 µg/mL. Does it hold? 0 (no)
